test: Compound was tested for plasma clearance in rats after 5 mg/kg of intravenous dosing; assay type: ADME, organism-based; set-up: dose 5 mg/kg, route intravenous; conditions: rat
Cut-off 6 mL/min/kg on clearance: below means 1, at or above means 0.

1) CCOC(=O)c1ccccc1CC[C@H](SC[C@@H](C)C(=O)O)c1cccc(/C=C/c2ccc3ccc(Cl)cc3n2)c1; 1
2) C[C@H](CS[C@@H](CCc1ccccc1C(C)(C)O)c1cccc(/C=C/c2ccc3ccc(Cl)cc3n2)c1)C(=O)O; 0
3) C[C@H](CS[C@@H](CCc1ccccc1CC(C)(C)O)c1cccc(/C=C/c2ccc3ccc(Cl)cc3n2)c1)C(=O)O; 0
4) CCC(=O)c1ccccc1CC[C@H](SC[C@@H](C)C(=O)O)c1cccc(/C=C/c2ccc3ccc(Cl)cc3n2)c1; 0

Now examine the next entry.
Q: API: query returns whether the compound falls strictly under 6 mL/min/kg in clearance. Query: C[C@H](CS[C@@H](CCc1ccccc1C(=O)c1ccccc1)c1cccc(/C=C/c2ccc3ccc(Cl)cc3n2)c1)C(=O)O
Ans: 0
